From: patent US20260242478A1

# Subject Of Test: T1, PSMA Fab (006 PSMA Fab), biotinylated (biotinylated (site and chain not stated))
# T1 construct: also called Anti-PSMA Fab; anti-PSMA Fab
# Method Summary: phage ELISA; biotinylated PSMA Fab on neutravidin plate, blocking buffer alone, bound phage detected with HRP anti-M13 antibody
Where no end group is shown, it is not given here.
Measured Property: Phage binding ELISA signal, Anti-PSMA Fab
// return a plain number; no unit text

IN: What measured Phage binding ELISA signal, Anti-PSMA Fab goes with HVAMCQPTWMCMGF (cysteine pairing not given here; also: fused to pIII of bacteriophage, junction and order not given here, Tested as crude clonal phage supernatant; not shown: pIII filament protein of the bacteriophage, fused to the peptide) [Phage-3604, clonal phage showing a Peptide-180 library peptide] ?
OUT: 1.58

IN: What measured Phage binding ELISA signal, Anti-PSMA Fab goes with SHMVCKPTWMCQGF (Tested as crude clonal phage supernatant; not shown: pIII filament protein of the bacteriophage, fused to the peptide) [Phage-3609, clonal phage showing a Peptide-180 library peptide] ?
OUT: 1.58

IN: What measured Phage binding ELISA signal, Anti-PSMA Fab goes with GWEWCIPEWMCTGL (Tested as crude clonal phage supernatant; not shown: pIII filament protein of the bacteriophage, fused to the peptide) [Phage-3614, clonal phage showing a Peptide-180 library peptide] ?
OUT: 1.57

IN: What measured Phage binding ELISA signal, Anti-PSMA Fab goes with VQPACVPIWMCDGL (Tested as crude clonal phage supernatant; not shown: pIII filament protein of the bacteriophage, fused to the peptide) [Phage-3610, clonal phage showing a Peptide-180 library peptide] ?
OUT: 1.58

IN: What measured Phage binding ELISA signal, Anti-PSMA Fab goes with VDRLCMPIWMCEGL (Tested as crude clonal phage supernatant; not shown: pIII filament protein of the bacteriophage, fused to the peptide) [Phage-3611, clonal phage showing a Peptide-180 library peptide] ?
OUT: 1.58

IN: What measured Phage binding ELISA signal, Anti-PSMA Fab goes with LDIVCRPSWMCYGF (Tested as crude clonal phage supernatant; not shown: pIII filament protein of the bacteriophage, fused to the peptide) [Phage-3607, clonal phage showing a Peptide-180 library peptide] ?
OUT: 1.58

IN: What measured Phage binding ELISA signal, Anti-PSMA Fab goes with DPVMCMPRWMCDGF (Tested as crude clonal phage supernatant; not shown: pIII filament protein of the bacteriophage, fused to the peptide) [Phage-3612, clonal phage showing a Peptide-180 library peptide] ?
OUT: 1.57

IN: What measured Phage binding ELISA signal, Anti-PSMA Fab goes with ETVRCIPSWMCTGL (Tested as crude clonal phage supernatant; not shown: pIII filament protein of the bacteriophage, fused to the peptide) [Phage-3608, clonal phage showing a Peptide-180 library peptide] ?
OUT: 1.58
